target: SIK1 (human); test: KINOMEscan competition binding; settings: compound 10.0 µM
Please provide measured kinase still bound, per cent of control for the entries that follow.
Give bare numbers, in %.

Please review the entries below; each comes with its answer.
> print(dat)
                                   molecule  assayed.target  measured.value
1  C=CC(=O)Nc1cccc(Nc2nc(N[C@H]3CC[C@H](N(C)C)CC3)nc3c2ncn3C(C)C)c1    SIK1 (human)              85
2  Cc1ccc(NC(=O)c2cccc(C(C)(C)C#N)c2)cc1Nc1ccc2ncn(C)c(=O)c2c1    SIK1 (human)              30
3  COc1cc(C(=O)NC2CCN(C)CC2)ccc1Nc1ncc2c(n1)N(C1CCCC1)C(C)CC(=O)N2C (stereo unspecified)    SIK1 (human)             100

Dear colleague, could you please provide kinase still bound, per cent of control for the molecules listed below?
1. CC[C@@H]1C(=O)N(C)c2cnc(Nc3ccc(C(=O)NC4CCN(C)CC4)cc3OC)nc2N1C1CCCC1
2. C=CC(=O)Nc1cccc(Oc2nc(Nc3ccc(N4CCN(C)CC4)cc3OC)ncc2Cl)c1
3. O=C(O)c1ccc(Nc2ncc3c(n2)-c2ccc(Cl)cc2C(c2c(F)cccc2F)=NC3)cc1

Result:
[100, 100, 5.7]

* * *

target: GSK3B (human) (UniProt P49841); assay: KINOMEscan competition binding; settings: compound 10.0 µM
Sequence (P49841 whole entry, looked up): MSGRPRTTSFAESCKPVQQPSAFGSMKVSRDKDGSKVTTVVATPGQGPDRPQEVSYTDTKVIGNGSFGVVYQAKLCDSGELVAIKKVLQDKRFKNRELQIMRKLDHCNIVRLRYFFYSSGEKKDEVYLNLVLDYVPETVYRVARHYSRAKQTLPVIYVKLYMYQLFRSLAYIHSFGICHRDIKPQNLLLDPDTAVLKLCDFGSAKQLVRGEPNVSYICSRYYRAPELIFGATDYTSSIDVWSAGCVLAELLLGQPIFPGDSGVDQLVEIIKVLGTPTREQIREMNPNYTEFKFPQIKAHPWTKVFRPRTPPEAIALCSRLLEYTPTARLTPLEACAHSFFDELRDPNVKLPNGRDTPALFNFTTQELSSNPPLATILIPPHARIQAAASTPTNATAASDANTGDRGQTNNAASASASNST
Please provide measured kinase still bound, per cent of control for the entries that follow.
Answer shape: numeric part, then the unit.

> print(dat)
                                        mol  measured.value
1  CC[C@@H]1C(=O)N(C)c2cnc(Nc3ccc(C(=O)NC4CCN(C)CC4)cc3OC)nc2N1C1CCCC1            100%
2  CN(C)C/C=C/C(=O)Nc1cccc(Nc2ncc3c(n2)N(C)c2ccccc2C(=O)N3C)c1             82%
3  CCC(=O)N1CCN(c2ccc(-n3c(=O)ccc4cnc5ccc(-c6cnc7ccccc7c6)cc5c43)cc2C(F)(F)F)CC1            100%

Dear colleague, could you please provide kinase still bound, per cent of control for the compounds listed below?
1. Cc1cc([C@@H](C)Nc2ccccc2C(=O)O)c2nc(N3CCOCC3)cc(=O)n2c1
2. CCCS(=O)(=O)Nc1ccc(F)c(C(=O)c2c[nH]c3ncc(-c4ccc(Cl)cc4)cc23)c1F
3. O=C1Nc2ccc(I)cc2/C1=C/c1cc(Br)c(O)c(Br)c1
4. COc1cc(N2CCN(C)CC2)ccc1Nc1nc(N)c(C(=O)c2c(Cl)cccc2Cl)s1
5. COc1cc(C(=O)NC2CCN(C)CC2)ccc1Nc1ncc2c(n1)N(C1CCCC1)CCC(=O)N2C(C)C
6. C=CC(=O)Nc1cccc(Oc2nc(Nc3ccc(N4CCN(C)CC4)cc3OC)ncc2Cl)c1
7. C=CC(=O)Nc1cc(NC(=O)c2ccc(C)c(NC(=O)c3ccno3)c2)cc(C(F)(F)F)c1

Result:
["100%", "100%", "91%", "100%", "100%", "100%", "100%"]

Dear colleague, could you please provide kinase still bound, per cent of control for the compounds listed below?
1. Cc1ccc(C(=O)Nc2cccc(C(F)(F)F)c2)cc1Nc1cncc(C(N)=O)c1
2. O=C(NC1CC1)c1cccc(-c2ccc3c(NC(=O)C4CC4)n[nH]c3c2)c1

Result:
["100%", "97%"]

Dear colleague, could you please provide kinase still bound, per cent of control for the compounds listed below?
1. Cn1c(=O)n(-c2ccc(C(C)(C)C#N)cc2)c2c3cc(-c4cnc5ccccc5c4)ccc3ncc21
2. OCCCNc1cc(-c2ccnc(Nc3cccc(Cl)c3)n2)ccn1

Result:
1. 100%
2. 100%
